Reference source: PubChem BioAssay (EPA / NIEHS)

Experiment: STM_H9_NormalizedViability: Cytotoxicity Assessment at 120 hours in the Stemina devTOX quickPredict H9 human embryonic stem cell (hESC)-based Assay (AID 2283784)
Results filed as inconclusive are left out. Activity calls are given as the source filed them. How the source made its calls: active means hit-call score of the fitted dose curve at least 0.9, where 1 is the maximum; inconclusive means response in the unintended direction; inactive means score below 0.9.
Answer with one of the outcomes active, inactive

Worked examples follow.
COMPOUND	CLASS LABEL
CCCCOC(=O)C(C)Oc1ccc(Oc2ccc(C(F)(F)F)cn2)cc1 (configuration not stated)	inactive
CCNc1nc(N)nc(Cl)n1	inactive
CCCCCOC(=O)COc1cc(N2C(=O)C3=C(CCCC3)C2=O)c(F)cc1Cl	inactive
C#CCOC(=O)[C@@H](C)Oc1ccc(Oc2ncc(Cl)cc2F)cc1	active

What classification did `CC(C)CCCCCCc1ccc(O)cc1` end up with in this test? active

I would be grateful if you could indicate the recorded call for `Cc1nn(C)c(Oc2ccccc2)c1C=NOCc1ccc(C(=O)OC(C)(C)C)cc1` . active

For `Oc1ccc(C(c2ccc(O)cc2)C(Cl)(Cl)Cl)cc1` , what call appears in the results of this test? inactive

Recorded test outcome, item `OB(O)O` inactive

Please share the test call associated with C=CCOC(Cn1ccnc1)c1ccc(Cl)cc1Cl (configuration not stated) . inactive

---

Read-out: Plasminogen activator inhibitor-1 (PAI1), SERPINE1 (gene 5054)
Test: BSK_BE3C_PAI1: BioMAP Diversity Plus: BE3C Assay for Plasminogen activator inhibitor-1 (PAI1) Biomarker Activity (AID 2283037)
Details: primary human bronchial epithelial cells; actives raise or lower the signal
The source made the active and inactive calls. How the source made its calls: active means hit-call score of the fitted dose curve at least 0.9, where 1 is the maximum; inactive means score below 0.9.
Permitted responses: 1 (yes) = active, 0 (no) = inactive

Study these solved cases before continuing.
COMPOUND	CLASS LABEL
O=C(Nc1ccc([N+](=O)[O-])cc1Cl)c1cc(Cl)ccc1O	0 (no)
CC(C)(C)[C@@H](O)[C@@H](Cc1ccc(Cl)cc1)n1cncn1	0 (no)
COC(=O)c1ccc(CNS(C)(=O)=O)cc1S(=O)(=O)NC(=O)Nc1nc(OC)cc(OC)n1	0 (no)
Cc1nn(C)c(Oc2ccccc2)c1C=NOCc1ccc(C(=O)OC(C)(C)C)cc1	1 (yes)
CCOC(=O)COc1cc(-n2ncc(C(F)(F)F)c(C)c2=O)c(F)cc1Cl	0 (no)

Short answer needed: outcome of this test for C[C@]12CC[C@@H]3c4ccc(O)cc4C[C@@H](CCCCCCCCCS(=O)CCCC(F)(F)C(F)(F)F)[C@H]3[C@@H]1CC[C@@H]2O (stereo partly drawn) ? 0 (no)

Please indicate how the test categorized `c1ccc2[nH]c(-c3cscn3)nc2c1` . 0 (no)

I would be grateful if you could indicate the recorded call for `COC(=O)CSc1cc(N=c2sc(=O)n3n2CCCC3)c(F)cc1Cl` . 0 (no)

What did this assay record as the result for CC1(C)C(C=C(Cl)Cl)C1C(=O)OCc1cccc(Oc2ccccc2)c1 (stereo not drawn) ? 0 (no)

Hi, do you know how `c1ccc(Nc2ccccc2)cc1` came out in this test? 0 (no)

Dear all, I need the recorded test outcome for `S=C([S-])NCCNC(=S)[S-].[Mn+2]` , thank you. 0 (no)

I would be grateful if you could indicate the recorded call for `CCN(CC)C(=O)c1cccc(C)c1` . 0 (no)

Given `CCOC(=O)NCCOc1ccc(Oc2ccccc2)cc1` , state the outcome it received in this test. 0 (no)

// param item: `COC(=O)c1ccccc1C(=O)O` ; yields the recorded call 0 (no)

Status in this test for CCOC(=O)C(C)Oc1ccc(Oc2cnc3cc(Cl)ccc3n2)cc1 (stereo not drawn) ? 0 (no)
